Reported Emax at 30 µM values for a set of molecules
- tested-system: human mAChR M4 (Homo sapiens)
- Construct: expressed in transfected cells
- Sequence (P08173 1-479): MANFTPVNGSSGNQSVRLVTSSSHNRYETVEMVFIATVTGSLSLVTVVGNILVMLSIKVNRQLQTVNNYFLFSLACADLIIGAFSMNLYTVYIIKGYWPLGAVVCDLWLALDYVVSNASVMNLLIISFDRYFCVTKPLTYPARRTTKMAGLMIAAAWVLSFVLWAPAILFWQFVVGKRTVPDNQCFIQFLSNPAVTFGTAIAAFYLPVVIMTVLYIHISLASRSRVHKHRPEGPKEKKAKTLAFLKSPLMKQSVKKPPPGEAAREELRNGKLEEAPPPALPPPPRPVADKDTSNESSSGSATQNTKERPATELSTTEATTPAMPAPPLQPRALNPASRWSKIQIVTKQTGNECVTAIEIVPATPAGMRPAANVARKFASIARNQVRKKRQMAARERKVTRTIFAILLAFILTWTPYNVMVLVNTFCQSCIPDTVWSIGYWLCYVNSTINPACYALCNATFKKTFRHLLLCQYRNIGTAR
- procedure-text: mAChR M4 cell-based functional assay (calcium mobilization, CHO-K1 hM4-Gqi5 cells)
- setup-conditions: CHO-K1, % ACh maximum at 30 μM; human M4
recorded-endpoint: Emax at 30 µM (%)

                                    molecule  readout_number
 0  Cc1cc(C(=O)NCc2nccs2)cnc1N1CCc2ncc(-c3cn(C)nc3C)cc2C1 [compound 170]             103
 1  Cc1cc(C#N)nnc1N1CCc2ncc(-n3cccn3)cc2C1 [Example 400]              56
 2  Cc1nc(C)c(C)c(N2CCc3ncc(-c4ccc(N5CCC(F)(F)C5)nc4)cc3C2)n1 [compound 228]              66
 3  Cc1cc(C(=O)NC(C)C)cnc1N1CCc2ncccc2C1 [compound 58]              51
 4  COc1cc(-c2cnc3c(c2)CN(c2ncc(C#N)cc2C)CC3)ccn1 [Example 338]              91
 5  Cc1nc(N2CCOCC2)nc(N2CCc3ncc(Nc4ccnn4C)cc3C2)c1C [compound 276]             100
 6  [2H]C1([2H])Cc2ncc(Nc3cc(C)ncc3F)cc2C([2H])([2H])N1c1nnc(C#N)cc1C [Example 603]              97
 7  Cc1cc(Nc2cnc3c(c2)CN(c2ncc(C#N)cc2C)CC3)c(F)cn1 [Example 616]              95
 8  Cc1cc(C#N)cnc1N1CCc2ncc(-c3cnn(Cc4ccccc4)c3)cc2C1 [compound 97]              81
 9  Cc1c(C#N)nnc(N2CCc3ncc(Nc4ccccc4OC(F)(F)F)cc3C2)c1C [compound 44]              40
10  Cc1cc(C(=O)NCc2ncc(C(F)(F)F)cn2)cnc1N1CCc2ncccc2C1 [compound 145]              50
11  [2H]C([2H])([2H])c1cnc2c(c1)CN(c1nnc(C(=O)NCc3ccncc3)cc1C)CC2 [Example 579]             111

* * *

Reported Emax at 30 µM values for a set of compounds
- tested-system: human mAChR M4 (Homo sapiens, UniProt P08173)
- Construct: expressed in transfected cells
- procedure-text: mAChR M4 cell-based functional assay (calcium mobilization, CHO-K1 hM4-Gqi5 cells)
- setup-conditions: CHO-K1, % ACh maximum at 30 μM; human M4
recorded-endpoint: Emax at 30 µM (%)

In [3]: df
Out[3]:
                                   compound  units_symbol  readout_number
0  Cc1cc(C#N)nnc1N1CCc2ncc(Nc3ccncc3F)cc2C1             %              98
1  Cc1c(C#N)nnc(N2CCc3ncc(Nc4ccccc4N(C)C)cc3C2)c1C             %              51
2  Cc1c(C#N)nnc(N2CCc3ncc(N4CCC(C)n5nccc54)cc3C2)c1C (stereo not drawn)             %              98
3  COc1cc(-c2cnc3c(c2)CN(c2ncc(C#N)cc2C)CC3)c(Cl)cn1             %              49
4  Cc1c(C(=O)NCc2ccncc2)nnc(N2CCc3ncc(Nc4ccccc4F)cc3C2)c1C             %             105
5  Cc1cc(C(=O)N2CC(C(F)F)C2)nnc1N1CCc2ncc(C(F)(F)F)cc2C1             %             109
6  Cc1cc(C(=O)NCc2ccc3ncnn3c2)cnc1N1CCc2ncc(-c3cn(C)nc3C)cc2C1             %              57
7  Clc1nc2c(c(N3CCc4ncc(-c5cnn(C6CC6)c5)cc4C3)n1)COC2             %              33
8  Cc1cc(C(=O)NCc2nc3ccccc3s2)cnc1N1CCc2ncccc2C1             %              78
